B1: C10orf62 (parent)
chain: RALEEVEMKLQKNFLTQRENTIAG

Variants of: B1
Experiment: protein stability index of a GFP-peptide fusion (GPS, HEK-293T) (PSI 1-6); higher = more stable;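 note: lentivirally expressed fusions sorted by FACS into six bins by GFP to DsRed ratio, PSI derived from sequencing read proportions per bin multiplied by bin number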
Experimental setup: c terminus: a fixed tail appended
protein stability index below 3 gives F; protein stability index at or above it gives T.

[[record]]
sequence_change = "K9Q"
discrete_label = "T"

[[record]]
sequence_change = "N20S"
discrete_label = "T"

[[record]]
sequence_change = "G24N"
discrete_label = "T"

[[record]]
sequence_change = "L15W"
discrete_label = "F"

[[record]]
sequence_change = "R1N"
discrete_label = "T"


Please tell me: is the variant "K9V" at or over 3 in terms of protein stability index? F

Please tell me: is the variant "E5P" at or over 3 in terms of protein stability index? T

Please tell me: is the variant "A2P" at or over 3 in terms of protein stability index? T

Please tell me: is the variant "M8I" at or over 3 in terms of protein stability index? T
